- target.system: T1, Transmembrane activator and calcium modulator and cyclophilin ligand (CAML) interactor (TACI), on cells (human, UniProt O14836 1-293)
- T1 chain: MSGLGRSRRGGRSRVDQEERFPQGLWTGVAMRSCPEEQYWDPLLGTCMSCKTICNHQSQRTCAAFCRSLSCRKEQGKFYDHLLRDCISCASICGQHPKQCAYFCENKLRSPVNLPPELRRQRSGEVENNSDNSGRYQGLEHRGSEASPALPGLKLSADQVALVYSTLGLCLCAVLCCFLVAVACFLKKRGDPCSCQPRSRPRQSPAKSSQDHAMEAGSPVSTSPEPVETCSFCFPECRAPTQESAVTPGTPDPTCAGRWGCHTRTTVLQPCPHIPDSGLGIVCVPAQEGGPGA
- measurement.notes: Biacore SPR
measurement.name: Kd (nM)
Express it in nM; write the number only.

Some solved entries appear below for comparison.
1G6 anti-TACI monoclonal antibody (mouse hybridoma) (antibody, V domains shown, Tested as hybridoma supernatant from BalBC mice) VH: QVQLKQSGPGLVAPSQSLSITCTVSGFSLTSYGVDWVRQSPGKGLEWLGIIWGGGRTNYNSAFKSRLSISKDNSKSQVFLKMNSLQTDDTAMYYCASGDRAADYWGQGTSVTVSS VL: DIVMTQSQKFMSTTVGDRVTITCKASQNVGTAVAWYQQKPGQSPKLLIYSASNRYTGVPVRFTGSGSGTDFTLTINNMQSEDLADYFCQQYSSYPLTFGAGTKLELK
0.21
2G2 anti-TACI monoclonal antibody (mouse hybridoma) (antibody, V domains shown, Tested as hybridoma supernatant from BalBC mice) VH: QVTLKESGPGMLQPSQTLSLTCSFSGFSLSTFGMGVGWIRQPSGKGLEWLAHIWWDDAQYSNPALRSRLTISKDTSKNQVFLKIANVDTADTATYYCSRIHSYYSYDEGFAYWGQGTLVTVSS VL: DIVMTQSQKFMSTTVGDRVSITCKASQNVGTAVAWYQQKPGQSPKLLIYSASNRYTGVPDRFTGSGSGTDFTLTISNMQSEDLADYFCQQYSSYRTFGGGTKLEIKR
0.924

Problem: Field request: Kd | item: 2H6 anti-TACI monoclonal antibody (mouse hybridoma) (antibody, V domains shown) VH: EVQLQQSGPELVKPGASVRMSCKASGYTFTNYVMHWVKQKPGQGLEWIGYINPSNDDTKYTEKFKGKATLTSDKSSSTAYMELSSLTSEDSAVYYCARGTHGDYYALDYWGQGTSVTVSS VL: DIVLTQSPASLAVSLGQSVTISCRASESVEYYGTSLMQWYQQKPGQAPKLLIYGASNVESGVPARFSGSGSGTDFSLNIHPVEEDDIAMYFCQQSRKVPWTFGGGTKLEI
Result: 0.051

Problem: Field request: Kd | item: 4B11 anti-TACI monoclonal antibody (mouse hybridoma) (antibody, V domains shown, Tested as hybridoma supernatant from BalBC mice) VH: EVQLQQSVAELVRPGASVKLSCTASGFNIKNTYIHWVKQRPEQGLEWIGKIDPANGNSEYAPKFQGKATITADTSSNTAYLQLSSLTSEDTTIYYCTSGYGAYWGQGTTLTVSS VL: DIVLSQSPSSLAVSIGEKVTLSCKSSQSLLYSSNQKNYLAWFQQKPGQSLKLLIYWASTREFGVPDRFTGSGSGTDFTLTISSVKTEDLAVYYCQQYYTWTFGGGTKLEIK
Result: 0.379

Origin of the recorded values: patent US20190352409A1
